The measured values listed here are drawn from patent US12180193B2.

Hi there, I'd appreciate the recorded Dmax for every entry that follows.
- system: BRAF V600E (Homo sapiens, UniProt P15056, V600E)
- Construct: expressed in transfected cells
- Sequence (P15056 whole entry V600E): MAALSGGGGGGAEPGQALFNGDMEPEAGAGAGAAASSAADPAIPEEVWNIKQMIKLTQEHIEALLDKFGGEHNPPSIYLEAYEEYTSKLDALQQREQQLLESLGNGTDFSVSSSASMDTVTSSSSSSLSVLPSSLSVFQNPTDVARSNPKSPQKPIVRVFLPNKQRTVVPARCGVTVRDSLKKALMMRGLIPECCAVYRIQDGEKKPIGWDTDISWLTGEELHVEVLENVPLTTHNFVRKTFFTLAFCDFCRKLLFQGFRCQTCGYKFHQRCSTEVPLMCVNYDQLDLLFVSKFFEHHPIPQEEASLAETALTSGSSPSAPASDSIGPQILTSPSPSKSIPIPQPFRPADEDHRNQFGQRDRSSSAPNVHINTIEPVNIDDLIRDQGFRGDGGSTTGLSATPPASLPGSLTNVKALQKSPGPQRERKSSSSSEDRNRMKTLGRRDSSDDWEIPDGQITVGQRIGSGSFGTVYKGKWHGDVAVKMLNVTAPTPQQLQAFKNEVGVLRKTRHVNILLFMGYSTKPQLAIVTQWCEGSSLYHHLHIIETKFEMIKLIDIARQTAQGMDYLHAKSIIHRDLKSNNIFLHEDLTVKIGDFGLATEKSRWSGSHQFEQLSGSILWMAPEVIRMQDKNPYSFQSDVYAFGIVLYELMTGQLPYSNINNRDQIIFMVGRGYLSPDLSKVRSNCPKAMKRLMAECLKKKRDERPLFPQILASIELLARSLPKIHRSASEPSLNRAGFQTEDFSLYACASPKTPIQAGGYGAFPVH
- experimentNotes: Cellular assay of target protein degradation, T-Rex 293 cells stably transfected with HA-BRAF_V600E (HA immunofluorescence, high content imaging)
- Assay type: cell-based
- experimentalParameters: maximum degradation observed, T-Rex 293 HA-BRAF V600E

Form field, Dmax with BRAF V600E (Homo sapiens, UniProt P15056, V600E), item O=C1CC[C@H](N2Cc3cc(C4CCN(CC5CCN(c6ccc(-c7cnc8[nH]cc(C(=O)c9c(F)ccc(NS(=O)(=O)N%10CC[C@@H](F)C%10)c9C(F)(F)F)c8c7)cc6)CC5)CC4)ccc3C2=O)C(=O)N1 : 35 to 70%

Form field, Dmax with BRAF V600E (Homo sapiens, UniProt P15056, V600E), item O=C1CCC(N2Cc3cc(N4CC5(CC(Oc6ccc(-c7cnc8[nH]cc(C(=O)c9c(F)ccc(NS(=O)(=O)N%10CC[C@@H](F)C%10)c9F)c8c7)cc6)C5)C4)ccc3C2=O)C(=O)N1 (stereo partly drawn) : 35 to 70%

Form field, Dmax with BRAF V600E (Homo sapiens, UniProt P15056, V600E), item O=C1CCC(N2Cc3cc(CCCCN4CCN(c5ccc(-c6cnc7[nH]cc(C(=O)c8c(F)ccc(NS(=O)(=O)N9CC[C@@H](F)C9)c8F)c7c6)cc5)CC4)ccc3C2=O)C(=O)N1 (stereo partly drawn) : 35 to 70%
